Test system: 276233-004-R-J1-PDC KRAS spheroids with HUVEC/MSC, viability
assay comment: Anticancer human tumor 276233-004-R-J1-PDC patient-derived colon adenocarcinoma cell line growth inhibition [KRAS2]
stated conditions: second compound 10 µM; first compound 0.316 µM; active compounds read low
Below, each of the compounds is paired with its reported viability, T/C value.
Expressed in %, but write only the number.

Guide cases for viability, T/C, answers given:
compound	result
CCNC(=O)CC1N=C(c2ccc(Cl)cc2)c2cc(OC)ccc2-n2c(C)nnc21 (stereo not drawn) + CNCc1ccccc1-c1csc(C(C)Nc2nc(C)nc3cc(OC)c(OC)cc23)c1	0.22
CCN1CCN(Cc2ccc(Nc3ncc(F)c(-c4cc(F)c5nc(C)n(C(C)C)c5c4)n3)nc2)CC1 + COc1cc2nc(C)nc(NC(C)c3cc(N)cc(C(F)(F)F)c3)c2cc1OC1CCOC1	4.33

Return the recorded viability, T/C value; entry: O=C(c1cc(Cc2n[nH]c(=O)c3ccccc23)ccc1F)N1CCN(C(=O)C2CC2)CC1 + COc1cc2nc(C)nc(NC(C)c3cc(N)cc(C(F)(F)F)c3)c2cc1OC1CCOC1 40.9

====

Below, each of the compounds is paired with its reported viability, T/C value.
Tested on: 276233-004-R-J1-PDC KRAS spheroids with HUVEC/MSC, viability
assay comment: Anticancer human tumor 276233-004-R-J1-PDC cell line growth inhibition [KRAS2];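 further: cells exposed to agents for seven days before viability read; 100% = DMSO vehicle control wells and lower values mean fewer viable cells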
stated conditions: second compound 3.16 µM; first compound 0.1 µM; active compounds read low
Expressed in %, but write only the number.

compound	viability, T/C / %
Cn1ncnc1[C@H]1c2n[nH]c(=O)c3cc(F)cc(c23)N[C@@H]1c1ccc(F)cc1 + C=CC(=O)N1CCN(c2nc(OCC3CCCN3C)nc3c2CCN(c2cccc4cccc(C)c24)C3)CC1CC#N	72

Attention now turns to another entry.
Return the recorded viability, T/C value; entry: CN(C)C/C=C/C(=O)Nc1cc2c(Nc3ccc(F)c(Cl)c3)ncnc2cc1O[C@H]1CCOC1 + C=CC(=O)N1CCN(c2nc(=O)n(-c3c(C)ccnc3C(C)C)c3nc(-c4c(O)cccc4F)c(F)cc23)C(C)C1 69.7

====

Below, each of the molecules is paired with its reported viability, T/C value.
Test system: 276233-004-R-J1-PDC KRAS spheroids with HUVEC/MSC, viability
assay comment: Anticancer human tumor 276233-004-R-J1-PDC cell line growth inhibition [KRAS2];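 further: cells exposed to agents for seven days before viability read; 100% = DMSO vehicle control wells and lower values mean fewer viable cells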
stated conditions: second compound 0.1 µM; first compound 0.1 µM; active compounds read low

Guide cases for viability, T/C, answers given:
molecule	viability, T/C
CN(C)C/C=C/C(=O)Nc1cc2c(Nc3ccc(F)c(Cl)c3)ncnc2cc1O[C@H]1CCOC1 + CNCc1ccccc1-c1csc(C(C)Nc2nc(C)nc3cc(OC)c(OC)cc23)c1	74.7%
Cn1nccc1Nc1nccc(-c2cc3c(s2)C(C)(C)N(CCN2CCOCC2)C3=O)n1 + CNCc1ccccc1-c1csc(C(C)Nc2nc(C)nc3cc(OC)c(OC)cc23)c1	91.7%
CCNC(=O)CC1N=C(c2ccc(Cl)cc2)c2cc(OC)ccc2-n2c(C)nnc21 (stereo not given) + COc1cc2nc(C)nc(NC(C)c3cc(N)cc(C(F)(F)F)c3)c2cc1OC1CCOC1	67.1%
CN(C)C/C=C/C(=O)Nc1cc2c(Nc3ccc(F)c(Cl)c3)ncnc2cc1O[C@H]1CCOC1 + CC1OCC2(CCN(c3cnc(Sc4ccnc(N)c4Cl)c(N)n3)CC2)C1N	81.6%
COC(=O)c1ccc2c(C(=Nc3ccc(N(C)C(=O)CN4CCN(C)CC4)cc3)c3ccccc3)c(O)[nH]c2c1 + C=CC(=O)N1CCN(c2nc(=O)n(-c3c(C)ccnc3C(C)C)c3nc(-c4c(O)cccc4F)c(F)cc23)C(C)C1	72.4%
CC1COCCN1c1cc(-c2ccnn2C)c2ccnc(-c3ccn[nH]3)c2n1 (stereo not given) + CNCc1ccccc1-c1csc(C(C)Nc2nc(C)nc3cc(OC)c(OC)cc23)c1	90.2%
CC1(C)CCC(CN2CCN(c3ccc(C(=O)NS(=O)(=O)c4ccc(NCC5CCOCC5)c([N+](=O)[O-])c4)c(Oc4cnc5[nH]ccc5c4)c3)CC2)=C(c2ccc(Cl)cc2)C1 + C=CC(=O)N1CCN(c2nc(OCC3CCCN3C)nc3c2CCN(c2cccc4cccc(C)c24)C3)CC1CC#N	113%
CCNC(=O)CC1N=C(c2ccc(Cl)cc2)c2cc(OC)ccc2-n2c(C)nnc21 (stereo not given) + C=CC(=O)N1CCN(c2nc(=O)n(-c3c(C)ccnc3C(C)C)c3nc(-c4c(O)cccc4F)c(F)cc23)C(C)C1	86.5%
Cn1nccc1Nc1nccc(-c2cc3c(s2)C(C)(C)N(CCN2CCOCC2)C3=O)n1 + COc1cc2nc(C)nc(NC(C)c3cc(N)cc(C(F)(F)F)c3)c2cc1OC1CCOC1	97.3%
COC(=O)c1ccc2c(C(=Nc3ccc(N(C)C(=O)CN4CCN(C)CC4)cc3)c3ccccc3)c(O)[nH]c2c1 + C=CC(=O)N1CCN(c2nc(OCC3CCCN3C)nc3c2CCN(c2cccc4cccc(C)c24)C3)CC1CC#N	65.8%

Return the recorded viability, T/C value; entry: CC1OCC2(CCN(c3cnc(Sc4ccnc(N)c4Cl)c(N)n3)CC2)C1N (stereo not given) + C=CC(=O)N1CCN(c2nc(OCC3CCCN3C)nc3c2CCN(c2cccc4cccc(C)c24)C3)CC1CC#N 85%

Return the recorded viability, T/C value; entry: CN(C)C/C=C/C(=O)Nc1cc2c(Nc3ccc(F)c(Cl)c3)ncnc2cc1O[C@H]1CCOC1 + COc1cc2nc(C)nc(NC(C)c3cc(N)cc(C(F)(F)F)c3)c2cc1OC1CCOC1 80.2%

Return the recorded viability, T/C value; entry: CC1COCCN1c1cc(-c2ccnn2C)c2ccnc(-c3ccn[nH]3)c2n1 (stereo not given) + C=CC(=O)N1CCN(c2nc(=O)n(-c3c(C)ccnc3C(C)C)c3nc(-c4c(O)cccc4F)c(F)cc23)C(C)C1 88.4%
